Recorded values, source PubChem BioAssay (EPA / NIEHS).

# assay-system: Nucleoli Translocation, AR (gene 367) (UniProt P10275)
# Sequence (P10275 whole entry, looked up): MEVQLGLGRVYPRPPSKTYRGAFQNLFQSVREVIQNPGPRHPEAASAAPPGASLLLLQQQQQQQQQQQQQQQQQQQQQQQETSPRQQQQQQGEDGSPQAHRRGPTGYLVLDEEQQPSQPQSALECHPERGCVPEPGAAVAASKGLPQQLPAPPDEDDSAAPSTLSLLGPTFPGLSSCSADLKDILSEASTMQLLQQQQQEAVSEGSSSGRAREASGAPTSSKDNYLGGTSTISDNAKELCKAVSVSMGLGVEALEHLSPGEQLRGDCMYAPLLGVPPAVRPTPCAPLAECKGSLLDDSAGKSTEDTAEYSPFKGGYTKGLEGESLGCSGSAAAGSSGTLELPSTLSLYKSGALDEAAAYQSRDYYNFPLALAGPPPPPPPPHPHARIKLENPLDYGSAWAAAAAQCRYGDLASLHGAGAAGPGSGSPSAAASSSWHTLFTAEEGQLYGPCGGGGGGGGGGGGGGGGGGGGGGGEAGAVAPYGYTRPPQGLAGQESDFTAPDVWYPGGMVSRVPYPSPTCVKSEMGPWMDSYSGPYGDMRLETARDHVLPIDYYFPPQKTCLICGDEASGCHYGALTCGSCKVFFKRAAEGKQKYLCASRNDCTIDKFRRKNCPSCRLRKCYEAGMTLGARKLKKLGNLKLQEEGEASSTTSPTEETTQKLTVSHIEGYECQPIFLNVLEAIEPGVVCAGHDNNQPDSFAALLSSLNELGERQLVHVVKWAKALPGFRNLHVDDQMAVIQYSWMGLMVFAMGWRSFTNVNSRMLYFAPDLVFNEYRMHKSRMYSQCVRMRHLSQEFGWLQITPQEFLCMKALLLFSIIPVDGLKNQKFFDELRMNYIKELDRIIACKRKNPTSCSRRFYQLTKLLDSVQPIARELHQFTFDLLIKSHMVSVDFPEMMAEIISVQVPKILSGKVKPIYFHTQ
# protocol-notes: UPITT_HCI_U2OS_AR_TIF2_Nucleoli_Agonist: University of Pittsburgh U2OS Androgen Receptor-Transcriptional Intermediary Factor 2 (AR-TIF2) Agonism High Content Imaging Assay for Nucleoli Translocation (AID 2283998)
Results filed as inconclusive are left out. Calls of active or inactive are those of the source. The calls were made as follows: active = hit-call score of the fitted dose curve at least 0.9, where 1 is the maximum; inconclusive = response in the unintended direction; inactive = score below 0.9.
measured-endpoint: outcome

| molecule | outcome |
| --- | --- |
| CCOCCOCCO | inactive |
| CCC(C)N(C)C(=O)c1cc2ccccc2c(-c2ccccc2Cl)n1 (stereo unspecified) | inactive |
| CCCCCCCCCC[N+](C)(C)[O-] | inactive |
| Cc1c(C)c2c(c(C)c1O)CCC(C)(COc1ccc(CC3SC(=O)NC3=O)cc1)O2 (stereo unspecified) | inactive |
| C#CC(O)C(CC)CCCC (stereo unspecified) | inactive |

Kindly review the next molecule as well.
# outcome of C=CCCCCCCCCCCCC = inactive
